biological target: recombinant soluble homotrimeric HA of A/Solomon Islands/3/06 (H1N1) (Influenza A virus A/Solomon Islands/3/2006(H1N1)); experiment: HA microarray, BCC supernatant; settings: remark: other sources report otherwise
Kindly supply the reported Trimeric HA Binding: RLU values for the records listed here.
Write down the numeric answer in RLU and omit the unit.

May I ask what Trimeric HA Binding: RLU has been recorded for TCN-555 (5246_L16) (antibody, V domains shown) VH: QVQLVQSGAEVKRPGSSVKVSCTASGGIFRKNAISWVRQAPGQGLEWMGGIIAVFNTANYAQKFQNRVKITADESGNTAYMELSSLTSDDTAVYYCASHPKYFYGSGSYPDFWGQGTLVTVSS VL: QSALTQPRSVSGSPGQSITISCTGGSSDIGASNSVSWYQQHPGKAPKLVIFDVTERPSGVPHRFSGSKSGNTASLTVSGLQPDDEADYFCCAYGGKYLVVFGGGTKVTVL ?
26400

May I ask what Trimeric HA Binding: RLU has been recorded for TCN-553 (5261_C18) (antibody, V domains shown) VH: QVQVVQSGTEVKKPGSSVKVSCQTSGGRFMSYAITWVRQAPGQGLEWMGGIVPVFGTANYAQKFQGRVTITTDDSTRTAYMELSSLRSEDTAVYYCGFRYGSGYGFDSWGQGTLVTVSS VL: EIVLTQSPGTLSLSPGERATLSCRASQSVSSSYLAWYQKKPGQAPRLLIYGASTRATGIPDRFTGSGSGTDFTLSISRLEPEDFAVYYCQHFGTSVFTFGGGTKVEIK ?
16300

May I ask what Trimeric HA Binding: RLU has been recorded for TCN-523 (5248_A17) (antibody, V domains shown) VH: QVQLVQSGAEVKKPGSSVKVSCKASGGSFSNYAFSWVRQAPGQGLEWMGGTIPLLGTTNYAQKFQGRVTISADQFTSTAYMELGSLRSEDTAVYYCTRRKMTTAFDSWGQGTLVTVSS VL: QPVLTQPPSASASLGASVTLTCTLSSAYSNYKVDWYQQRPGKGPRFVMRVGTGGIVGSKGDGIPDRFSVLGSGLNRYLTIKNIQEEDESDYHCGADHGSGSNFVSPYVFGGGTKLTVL ?
37900

Origin of the recorded values: patent US20150086555A1
